# Test system: HEK-293T
# Method description: Multiplex assay against HEK293T
# Type: toxicity, cell-based
# Applied conditions: human, 24 h, 1 µM, compound concentration 1 uM, replicate 1
Outcome measure: Population Healthy Nuclei (%)
One number for each entry, in %.

Please review the entries below; each comes with its answer.
• Cl.Cl.NC1(c2ccc(-c3nc4ccn5c(=O)[nH]nc5c4cc3-c3ccccc3)cc2)CCC1 = 68
• CC(C)(C)c1cnc(CSc2cnc(NC(=O)C3CCNCC3)s2)o1 [BMS-387032] = 53
• CCc1cc2c(cc1CC)CC(NC[C@H](O)c1ccc(O)c3[nH]c(=O)ccc13)C2 [INDACATEROL] = 57
• COc1ccc(NS(=O)(=O)c2sc3ccc(Cl)cc3c2C)cc1N1CCNCC1.Cl = 40
• CNc1oc(-c2cccc3ccccc23)nc1C#N = 64
• CNC(=O)c1nn(C)c2c1C(C)(C)Cc1cnc(Nc3ccc(N4CCN(C)CC4)cc3)nc1-2 [MILCICLIB] = 33
• N#Cc1cnc(Nc2cc(NC[C@H]3CNCCO3)c(C(F)(F)F)cn2)cn1 [SRA-737] = 77
• CN(C)CCOc1ccc(-c2nc(-c3ccncc3)c(-c3ccc4c(c3)CC/C4=N\O)[nH]2)cc1 [SB590885] = 69

Each molecule below has a recorded value; state its Population Healthy Nuclei (%).
1. c1ccc2oc(-c3csc(C4CCN(Cc5nc6ncccc6[nH]5)CC4)n3)cc2c1
2. CCOc1cc(N2CCC(O)CC2)ccc1Nc1ncc2c(n1)N(C1CCCC1)CCC(=O)N2C
3. COc1cc(N2CCC(N(C)C)CC2)ccc1Nc1ncc(Cl)c(Nc2ccccc2P(C)(C)=O)n1
4. CN(C)C/C=C/C(=O)Nc1cc2c(Nc3ccc(F)c(Cl)c3)ncnc2cc1O[C@H]1CCOC1.O=C(O)/C=C\C(=O)O.O=C(O)/C=C\C(=O)O [AFATINIB DIMALEATE]
5. Cl.Cl.Nc1ncnc2c1c(-c1cccc(OCc3ccccc3)c1)cn2[C@H]1C[C@@H](CN2CCC2)C1
6. CCCn1c(=O)c2[nH]c(C34CC5CC(CC3C5)C4)nc2n(CCC)c1=O [ROLOFYLLINE]

Result:
[50, 73, 69, 71, 18, 32]

Each molecule below has a recorded value; state its Population Healthy Nuclei (%).
1. CC(=O)c1cc(-c2cc(C(=O)NC3CC3)ccc2C)c2ncccn12
2. CNC(=O)c1cc(Oc2ccc(NC(=O)Nc3cc(C(C)(C)C)nn3-c3ccc4ncccc4c3)c(F)c2)ccn1 [REBASTINIB]
3. COc1cc2c(Nc3ccc(NC(=O)c4ccccc4)cc3)ncnc2cc1OCCCN1CCOCC1
4. CCn1c(-c2nonc2N)nc2cnc(Oc3cccc(NC(=O)c4ccc(OCCN5CCOCC5)cc4)c3)cc21 [GSK-269962A]

Result:
[31, 74, 58, 30]

* * *

# System: U2OS
# Method description: Multiplex assay against U2OS
# Assay type: toxicity, cell-based
# Applied conditions: human, 48 h, 10 µM, compound concentration 10 uM, replicate 2
Outcome measure: Population Hoechst High Intensity Objects (%)
One number for each entry, in %.

- CCc1cc2c(cc1CC)CC(NC[C@H](O)c1ccc(O)c3[nH]c(=O)ccc13)C2 [INDACATEROL]: 16
- CCn1c(-c2nonc2N)nc2cnc(Oc3cccc(NC(=O)c4ccc(OCCN5CCOCC5)cc4)c3)cc21 [GSK-269962A]: 10
- CCCn1c(=O)c2[nH]c(C34CC5CC(CC3C5)C4)nc2n(CCC)c1=O [ROLOFYLLINE]: 4
- CC(C)N1CCC(C)(C)c2cc(C#Cc3ccc(C(=O)O)cc3)ccc21: 57
- CCC(=O)O[C@]1(C(=O)SCF)[C@H](C)C[C@H]2[C@@H]3C[C@H](F)C4=CC(=O)C=C[C@]4(C)[C@@]3(F)[C@@H](O)C[C@@]21C [FLUTICASONE PROPIONATE]: 3

Request: What does the record list as Population Hoechst High Intensity Objects (%) for C1=N/C2=N/c3ccc(OCCN4CCCC4)c(c3)COC/C=C\COCc3cccc(c3)C(=C1)N2 ?
Result: 37

* * *

For each of the compounds below, state its Population Fragmented Nuclei (%).
# Tested on: Fibroblast
# Method description: Multiplex assay against human fibroblast
# Assay type: toxicity, cell-based
# Applied conditions: 12 h, 1 µM, compound concentration 1 uM, replicate 1
Number first, unit second.

* CCOc1cc(N2CCC(O)CC2)ccc1Nc1ncc2c(n1)N(C1CCCC1)CCC(=O)N2C | 25%

Each compound below has a recorded value; state its Population Fragmented Nuclei (%).
1. CNC(=O)c1nn(C)c2c1C(C)(C)Cc1cnc(Nc3ccc(N4CCN(C)CC4)cc3)nc1-2
2. Cc1cc2c(cc1N1C(=O)c3cccc4c(CCCO)ccc(c34)C1=O)n(C)c(=O)n2C

Result:
26%
19%

Request: Give Population Fragmented Nuclei (%) (Fibroblast) of the following compound: COc1cc2c(NC3CCN(C(C)C)CC3)nc(N3CCC(F)(F)CC3)nc2cc1OCCCN1CCCC1
Result: 30%

* * *

# Test system: Fibroblast
# Method description: Multiplex assay against human fibroblast
# Type: toxicity, cell-based
# Applied conditions: 48 h, 1 µM, compound concentration 1 uM, replicate 1
For each of the molecules below, state its Total Cell Count.

• Cc1nc(Cc2cccc(C(F)(F)F)c2)sc1-c1ccc(C(N)=O)nc1 [TP-024n] = 116

Each molecule below has a recorded value; state its Total Cell Count.
1. CNc1oc(-c2cccc3ccccc23)nc1C#N
2. CCn1c(-c2nonc2N)nc2cnc(Oc3cccc(NC(=O)c4ccc(OCCN5CCOCC5)cc4)c3)cc21 [GSK-269962A]
3. Nc1ccc(C(=O)Nc2cccc(-c3nc(N4CCOCC4)c4oc5ncccc5c4n3)c2)cn1

Result:
[411, 120, 190]

Request: What does the record list as Total Cell Count for CCc1cc2c(cc1CC)CC(NC[C@H](O)c1ccc(O)c3[nH]c(=O)ccc13)C2 [INDACATEROL] ?
Result: 222

* * *

# Tested on: U2OS
# Method description: Multiplex assay against U2OS
# Assay type: toxicity, cell-based
# Applied conditions: human, 12 h, 1 µM, compound concentration 1 uM, replicate 2
Outcome measure: Population Apoptotic (%)
One number for each entry, in %.

Please review the entries below; each comes with its answer.
- Cc1nc(Cc2cccc(C(F)(F)F)c2)sc1-c1ccc(C(N)=O)nc1 [TP-024n]: 50
- CC(C)Oc1ccc(C(=O)N[C@H](CNC(=O)CN(C)C)Cc2ccc(-c3cn4cccc([C@H](C)O)c4n3)cc2)cc1Cl [GSK-923295A]: 21

As a next step, examine the compound that follows.
Request: What does the record list as Population Apoptotic (%) for Nc1nc2c(c(N3CCNCC3)n1)CCC1=C2[C@@H]2CCCC[C@@H]2O1 ?
Result: 0

* * *

# Test system: HEK-293T
# Method description: Multiplex assay against HEK293T
# Assay type: toxicity, cell-based
# Applied conditions: human, 24 h, 10 µM, compound concentration 10 uM, replicate 2
Outcome measure: Population Apoptotic (%)

Each compound below has a recorded value; state its Population Apoptotic (%).
1. COc1cc2c(Nc3ccc(NC(=O)c4ccccc4)cc3)ncnc2cc1OCCCN1CCOCC1
2. Cl.Cl.NC1(c2ccc(-c3nc4ccn5c(=O)[nH]nc5c4cc3-c3ccccc3)cc2)CCC1
3. Nc1nc2c(c(N3CCNCC3)n1)CCC1=C2[C@@H]2CCCC[C@@H]2O1
4. CCn1c(-c2nonc2N)nc2cnc(Oc3cccc(NC(=O)c4ccc(OCCN5CCOCC5)cc4)c3)cc21 [GSK-269962A]
5. CC(=O)c1cc(-c2cc(C(=O)NC3CC3)ccc2C)c2ncccn12
6. CNC(=O)c1cc(Oc2ccc(NC(=O)Nc3cc(C(C)(C)C)nn3-c3ccc4ncccc4c3)c(F)c2)ccn1

Result:
1: 4%; 2: 12%; 3: 81%; 4: 72%; 5: 28%; 6: 43%

Each compound below has a recorded value; state its Population Apoptotic (%).
1. Nc1ccc(C(=O)Nc2cccc(-c3nc(N4CCOCC4)c4oc5ncccc5c4n3)c2)cn1
2. CCOc1cc2ncc(C#N)c(Nc3ccc(OCc4cccc(F)c4)c(Cl)c3)c2cc1NC(=O)/C=C/CN(C)C

Result:
67%
11%

* * *

# Test system: U2OS
# Method description: Multiplex assay against U2OS
# Assay type: toxicity, cell-based
# Applied conditions: human, 12 h, 10 µM, compound concentration 10 uM, replicate 2
Binning of Population Mitotic Cells (%) into classes: low-valued: < 40%; mid-valued: ≥ 40% and < 70%; high-valued: ≥ 70%

The following compounds have reported results that may help.
• CCc1cc2c(cc1CC)CC(NC[C@H](O)c1ccc(O)c3[nH]c(=O)ccc13)C2 = low-valued
• CN(C)CCOc1ccc(-c2nc(-c3ccncc3)c(-c3ccc4c(c3)CC/C4=N\O)[nH]2)cc1 = mid-valued
• CCOc1cc(N2CCC(O)CC2)ccc1Nc1ncc2c(n1)N(C1CCCC1)CCC(=O)N2C = mid-valued

Request: Note: place this compound into its band. Item: Cc1cc2c(cc1N1C(=O)c3cccc4c(CCCO)ccc(c34)C1=O)n(C)c(=O)n2C
Result: mid-valued

Request: What do you have for Cl.Cl.Nc1ncnc2c1c(-c1cccc(OCc3ccccc3)c1)cn2[C@H]1C[C@@H](CN2CCC2)C1 ?
Result: low-valued

Request: What do you have for c1ccc2oc(-c3csc(C4CCN(Cc5nc6ncccc6[nH]5)CC4)n3)cc2c1 ?
Result: high-valued

Request: What do you have for CN(C)C/C=C/C(=O)Nc1cc2c(Nc3ccc(F)c(Cl)c3)ncnc2cc1O[C@H]1CCOC1.O=C(O)/C=C\C(=O)O.O=C(O)/C=C\C(=O)O [AFATINIB DIMALEATE] ?
Result: low-valued

Request: What do you have for CC(C)(C)c1cnc(CSc2cnc(NC(=O)C3CCNCC3)s2)o1 ?
Result: high-valued

Request: What do you have for N#Cc1cnc(Nc2cc(NC[C@H]3CNCCO3)c(C(F)(F)F)cn2)cn1 ?
Result: high-valued

Request: What do you have for COc1ccc(NS(=O)(=O)c2sc3ccc(Cl)cc3c2C)cc1N1CCNCC1.Cl ?
Result: low-valued
